result type: melting point

Exercise: Give its melting point value. Item: CCOC(=O)c1cnc2nc(SC)nn2c1N
Key: 211 to 213 °C

# map each compound to its melting point
1. CC12CC3(C)CC(C)(C1)CC(C(=O)O)(C2)C3
2. CSCN1C(=O)NC(c2ccccc2)(c2ccccc2)C1=O
3. COc1ccc(C(C=C(SC)SC)=C(C#N)C#N)cc1

Key:
149 to 151 °C
124 to 131 °C
149 to 152 °C

====

Task for the reader: assign each of the following compounds its reported melting point.

Reference set, count: 3
Exercise: Give its melting point value. Item: CCCOc1ccc(C(N)=NO)cc1
Key: 105 to 106 °C

Exercise: Give its melting point value. Item: CC(=O)NNC(N)=S
Key: 165 to 170 °C

Exercise: Give its melting point value. Item: O=C(O)c1cccc(Cn2cncn2)c1
Key: 209 to 210 °C

Now let's try a different one.
Exercise: Give its melting point value. Item: CC1(C)CC(=O)c2cc(-c3ccccc3)n(-c3ccc(Cl)cc3)c2C1
Key: 185 to 187 °C

====

just bin them by melting point: low bin = under -2 °C, mid bin = from -2 °C up to 100 °C, high bin = 100 °C and over

Study these solved cases before continuing.
Exercise: Please classify: CC(C)(C)CC(C)(C)S
Key: low bin

Exercise: Please classify: O=C(O)c1ccc(Oc2ccccc2)cc1
Key: high bin

Exercise: Please classify: O=C1C(=Cc2ccccc2)SC(=S)N1CNc1cccc([N+](=O)[O-])c1
Key: high bin

Exercise: Please classify: CSC(Nc1ccccc1)=C(C#N)C#N
Key: mid bin

Exercise: Please classify: ON=Cc1ccc2c(Br)cccc2c1
Key: high bin

Exercise: Please classify: CCN(CC)C(=O)N1CCN(C)CC1
Key: mid bin

***
Exercise: Please classify: CC(=O)n1cc(C=O)c2ccccc21
Key: high bin

Exercise: Please classify: CCOc1ccc(F)cc1
Key: low bin

Exercise: Please classify: CN(N=Cc1ccc(F)cc1)P(=O)(N1CC1)N1CC1
Key: high bin

====

Task for the reader: assign each of the following molecules its reported melting point.

Reference set, count: 5
Exercise: Give its melting point value. Item: CCOC(=O)CON=C(c1cc2ccccc2o1)C1CC(C)(c2ccccc2)C1 (configuration not stated)
Key: 155 to 156 °C

Exercise: Give its melting point value. Item: Cc1c2c(c(C)c3c1C(=O)C3)C(=O)C2
Key: 237 to 238 °C

Exercise: Give its melting point value. Item: O=S1(=O)CCN(Cc2ccccc2)CC1
Key: 85 to 86 °C

Exercise: Give its melting point value. Item: CCCCCCCCOc1ccc(C(C)=O)cc1OCCCCCCCC
Key: 59 to 61 °C

Exercise: Give its melting point value. Item: Fc1c(F)c(CCl)c(F)c(F)c1CCl
Key: 77 to 78 °C

# map each molecule to its melting point
1. FC(F)(F)c1ccnc(N2CCCNCC2)n1
2. C=CC(=O)Nc1ccc2c(c1)OCCOCCOCCOCCOCCO2

Key:
1. 50 to 51 °C
2. 108 to 112 °C

====

Task for the reader: assign each of the following molecules its reported melting point.

Reference set, count: 10
Exercise: Give its melting point value. Item: COc1cc(Br)c(CC(=O)O)cc1OC
Key: 94 to 96 °C

Exercise: Give its melting point value. Item: COc1cc(Cl)nc(OC)n1
Key: 74 to 76 °C

Exercise: Give its melting point value. Item: CSc1nc(=O)n(Cc2ccccc2)c2c1CCC2
Key: 94 to 96 °C

Exercise: Give its melting point value. Item: NC(=S)c1ccc(C(F)(F)F)cc1
Key: 136 to 137 °C

Exercise: Give its melting point value. Item: O=[N+]([O-])c1ccc(Cl)c(CO)c1
Key: 77 to 78 °C

Exercise: Give its melting point value. Item: Cn1nc(C(F)(F)F)c(C(=O)O)c1Cl
Key: 201 to 202 °C

Exercise: Give its melting point value. Item: Nn1cnc2c(c(Br)nn2C2CCCCC2)c1=O
Key: 253 to 254 °C

Exercise: Give its melting point value. Item: Sc1nnc2ccccn12
Key: 213 to 214 °C

Exercise: Give its melting point value. Item: c1ccc(N2CCCCC2)cc1
Key: 4.7 °C

Exercise: Give its melting point value. Item: COc1ccccc1-c1nnc2n1NC(c1ccc(Cl)cc1)S2 (stereo not drawn)
Key: 203 °C

# map each molecule to its melting point
1. COC(=O)c1cccc(C#N)c1
2. N#CCc1ccc(OC(F)(F)F)cc1
3. FC(F)(F)c1cccnc1Cl

Key:
["65 °C", "29 °C", "39 °C"]

# map each molecule to its melting point
1. CC(C)(C)OC(=O)NC(Cc1cccnc1)C(=O)O (stereo not drawn)
2. CCOC(=O)c1c(C)sc(Sc2ccccc2[N+](=O)[O-])c1OC(C)=O
3. CC(=O)Nc1ccccc1N=Nc1ccccc1
4. CC(C)(CO)NCC(O)CS(=O)(=O)O (stereo not drawn)
5. Oc1ccc2ccccc2c1Cc1c(O)ccc2ccccc12
6. CCOC=C(C#N)C(=O)OCC

Key:
137 °C
130 to 131 °C
123 °C
215 to 225 °C
188 to 190 °C
49.5 °C

# map each molecule to its melting point
1. CCOC(=O)c1cc(C(=O)OCC)cc(C(=O)OCC)c1
2. Cc1nc(/C(C#N)=C/c2ccc(F)cc2)sc1/N=N/c1c(Br)cc(Br)cc1Br
3. Clc1cc(Cl)c(Cl)c(I)c1
4. O=CC=O
5. Nc1ccccc1F
6. Oc1c(Br)cc(F)cc1Br
7. Nc1ccccc1N1CCOCC1
8. CN[C@H](CC(=O)O)C(=O)O

Key:
1. 134 °C
2. 170 °C
3. 52 °C
4. 15 °C
5. -29 °C
6. 55 °C
7. 98 to 99 °C
8. 187 to 192 °C

Recorded values, source a melting point compilation (Tetko et al.).
